- testMethodNotes: Release kinetics / degradation of OLA and AA in PBS by UV-Vis
- Assay type: physicochemical
- statedConditions: buffer, pH 7.4
experimentalEndpoint: half-life at 10.5 ppm (h)
Reply with just the number (in h).

Exam item: Quick check: half-life at 10.5 ppm of O=C1O[C@H]([C@@H](O)CO)C(O)=C1O [AA, ascorbic acid] ?
Marked response: 2.7
